Molecular target: human TLR8 (Homo sapiens, UniProt Q9NR97)
Construct: host or cells: HEK-Blue cells (HEK293-derived reporter line)
Sequence (Q9NR97 27-1041): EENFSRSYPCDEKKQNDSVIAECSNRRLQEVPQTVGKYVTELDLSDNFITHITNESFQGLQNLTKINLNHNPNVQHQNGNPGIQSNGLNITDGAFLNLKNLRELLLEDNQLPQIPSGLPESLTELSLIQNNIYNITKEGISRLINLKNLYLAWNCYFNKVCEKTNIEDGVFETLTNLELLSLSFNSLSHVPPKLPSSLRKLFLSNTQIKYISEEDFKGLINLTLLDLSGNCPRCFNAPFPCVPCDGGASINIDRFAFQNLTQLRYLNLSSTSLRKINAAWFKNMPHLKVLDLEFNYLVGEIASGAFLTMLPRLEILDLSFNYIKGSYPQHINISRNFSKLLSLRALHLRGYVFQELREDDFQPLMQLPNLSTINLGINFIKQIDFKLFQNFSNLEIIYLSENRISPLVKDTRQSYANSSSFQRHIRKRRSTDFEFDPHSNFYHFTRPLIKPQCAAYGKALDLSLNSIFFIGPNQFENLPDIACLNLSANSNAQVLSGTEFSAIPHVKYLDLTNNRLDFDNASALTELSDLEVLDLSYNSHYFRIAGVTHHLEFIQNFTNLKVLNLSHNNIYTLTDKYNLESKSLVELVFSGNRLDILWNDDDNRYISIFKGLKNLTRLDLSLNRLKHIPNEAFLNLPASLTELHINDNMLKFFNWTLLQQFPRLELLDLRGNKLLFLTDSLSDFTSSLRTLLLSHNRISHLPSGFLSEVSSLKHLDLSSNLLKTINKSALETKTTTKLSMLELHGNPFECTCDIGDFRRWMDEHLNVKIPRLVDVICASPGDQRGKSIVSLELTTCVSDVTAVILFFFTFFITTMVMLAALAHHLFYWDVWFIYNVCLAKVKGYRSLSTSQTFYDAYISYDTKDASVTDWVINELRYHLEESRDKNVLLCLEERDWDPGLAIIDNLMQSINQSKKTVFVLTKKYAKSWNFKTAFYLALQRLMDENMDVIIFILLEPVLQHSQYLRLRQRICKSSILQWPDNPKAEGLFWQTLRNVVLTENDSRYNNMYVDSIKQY
Test: TLR8 inhibition reporter assay (HEK-Blue cells, SEAP reporter, R848 stimulation)
Type: cell-based
Conditions: HEK-Blue cells overexpressing human TLR8, SEAP reporter, R848 15.9 μM
Known IC50 of a selection of compounds

Field: example entries. Status: answers known.
COMPOUND | OBS VALUE
CCc1c(-c2ccnc3[nH]ncc23)[nH]c2ccc(C3CCN(C(=O)CN)CC3)cc12 | < 100 nM
CC(C)c1c(-c2ccc(C#N)c3ncccc23)[nH]c2ccc(C3CCN(CC(N)=O)CC3)cc12 | < 100 nM
CNC(=O)CN1CCC(c2ccc3[nH]c(-c4cn5cc(C)nc5cc4C)c(C(C)C)c3c2)CC1 | 100 to 1000 nM

Exercise: Look up IC50 for this compound: CNCCN1CCC(c2ccc3[nH]c(-c4ccnc5[nH]ncc45)c(C(C)C)c3c2)C(F)C1 (centres unmarked) [Example 678]
Key: < 100 nM

Exercise: Param item: `CC(C)c1c(-c2cnc3nccn3c2)[nH]c2ccc(C3CCNCC3)cc12`
Key: 100 to 1000 nM
